The entries below come with measured phytotoxicity (visual assessment 0-10) values attached.
# Tested on: Kentucky bluegrass
# method-summary: Turf grass selectivity, greenhouse pot test
# Format: in vivo, Poa pratensis
# particulars: 400 g ai/ha, 4 weeks
Lab note: jot the number down without any unit.

Example results:
molecule="COc1cc(OC)nc(NC(=O)NS(=O)(=O)c2ncccc2C(F)(F)F)n1 [Control chemical No. 2, Flazasulfuron, reference compound]" endpoint_name="phytotoxicity (visual assessment 0-10)" measured_value=10
molecule=COc1nc(C)nc(NC(=O)NS(=O)(=O)c2cscc2C2(CF)OCCO2)n1 endpoint_name="phytotoxicity (visual assessment 0-10)" measured_value=10
molecule="CCOC(=O)c1cnn(C)c1S(=O)(=O)NC(=O)Nc1nc(OC)cc(OC)n1 [Control chemical No. 1, Pyrazosulfuron ethyl, reference compound]" endpoint_name="phytotoxicity (visual assessment 0-10)" measured_value=1

What measured phytotoxicity (visual assessment 0-10) goes with Cc1cc(C)nc(NC(=O)NS(=O)(=O)c2ccccc2C(O)C(C)F)n1 (stereo not shown) ? 1
